conditions: buffer; pH 7.4; 200.0 µM
I would appreciate it if you labelled entries 1 when solubility kinetic is 7 µg/mL or higher, otherwise -1.

Look over these answered cases.
Cc1ccc(CC2C(=O)N(c3nc(C)cc(C)n3)C(=O)C2C)cc1 (centres undefined); 1
CCOCCc1c(O)nc(SCC)[nH]c1=O; 1
O=C(COC(=O)c1ccccc1F)Nc1ccc(S(=O)(=O)N2CCOCC2)cc1; 1
O=C(CC1C(=O)NCCN1Cc1cccc(F)c1)NC1CCC1 (centres undefined); 1
O=C(Nc1ccncc1)Nc1cccc(Cl)c1Cl; 1
CCC(=O)Nc1sc(Cc2ccc3c(c2)OCO3)c(C)c1C(N)=O; -1

Ask | Decide: is the reported value of solubility kinetic for Cn1c(=O)n(CCO)c(=O)c2c1nc(Br)n2Cc1ccccc1 equal to or greater than 7 µg/mL?
Reply | 1

Ask | Decide: is the reported value of solubility kinetic for O=C(NCc1cccc(C(F)(F)F)c1)c1ccc(=O)[nH]c1 equal to or greater than 7 µg/mL?
Reply | 1

Ask | Decide: is the reported value of solubility kinetic for Nc1ccc(N2CCN(c3ccccc3)CC2)c(F)c1 equal to or greater than 7 µg/mL?
Reply | 1

Ask | Decide: is the reported value of solubility kinetic for CC(=O)c1c(C)[nH]c(C(=O)NCc2ccccc2F)c1C equal to or greater than 7 µg/mL?
Reply | 1

Ask | Decide: is the reported value of solubility kinetic for CC1=NN(C(=O)CCc2ccccc2)C(O)(c2ccncc2)C1 (centres undefined) equal to or greater than 7 µg/mL?
Reply | 1

Ask | Decide: is the reported value of solubility kinetic for CCN(Cc1ccccc1)C(=O)CS(=O)(=O)c1ccccc1 equal to or greater than 7 µg/mL?
Reply | 1

Ask | Decide: is the reported value of solubility kinetic for CC1(C)CC(=O)c2cnc3nc4ccccc4n3c2C1 equal to or greater than 7 µg/mL?
Reply | 1
